Reference source: patent US20240376097A1

Each entry below lists one item and its recorded IC50 value.
Test system: RS4;11 (BCL-2 dependent acute lymphoblastic leukemia cell line)
Test: RS4;11 Cell Proliferation Assay
Type: cell-based
Details: Homo sapiens, RS4-11, RS4;11 cells, read-out: Cellular proliferation assay (IC50, nM) RS4
Quick reminder: number only, in nM, skip the unit.

compound	testReadout	experimentalValue
COc1cc(CN2CCN(C3CC4(CCN(c5ccc(C(=O)NS(=O)(=O)c6ccc(NC[C@H]7CC[C@](C)(O)CC7)c([N+](=O)[O-])c6)c(Oc6cnc7[nH]cc(F)c7c6)c5)CC4)C3)[C@H](c3ccccc3C(C)C)C2)ccc1C [Example 273]	IC50	0.25

Consider the additional compound presented here.
stdin: What IC50 value was documented for this compound, COC12CC3CC(CC(CN4CCN(C5CC6(C5)CN(c5ccc(C(=O)NS(=O)(=O)c7ccc(NC[C@H]8CC[C@](C)(O)CC8)c([N+](=O)[O-])c7)c(Oc7cnc8[nH]cc(F)c8c7)c5)C6)[C@H](c5ccccc5C(C)C)C4)(C3)C1)C2 [Example 352] ?
stdout: 0.45

---

Target: recombinant human Bcl-2-G101V protein (Homo sapiens (Human), UniProt P10415, G101V)
Assay: Bcl-2-G101V TR-FRET Assay
Format: binding
Conditions: Bcl-2 G101V mutant, TR-FRET; read-out: Biochemical assay (IC50, nM) Bcl-2 G101V
Protocol: Biological Example: Bcl-2-G101V TR-FRET Assay […]. The TR-FRET signals (ex337 nm, em490 nm/520 nm) were read on BMG PHERAstar FSX instrument. The inhibition percentage of Bcl-2-G101V interaction with its ligand in presence of increasing concentrations of compounds was calculated based on the ratio of fluorescence at 490 nm to that at 520 nm. The IC50 for each compound was derived from fitting the data to the four-parameter logistic equation by Graphpad Prism software or Dotmatics.
Each entry below lists one item and its recorded IC50 value.
Quick reminder: number only, in nM, skip the unit.

Before answering, review these 4 worked examples.
molecule	unitText	IC50
CC(C)c1ccccc1C1CN(Cc2cccc3ccoc23)CCN1C1CC2(CCN(c3ccc(C(=O)NS(=O)(=O)c4ccc(NC[C@H]5CC[C@](C)(O)CC5)c([N+](=O)[O-])c4)c(Oc4cnc5[nH]ccc5c4)c3)CC2)C1 (some centres unmarked) [Example 137]	nM	3.2
CC(C)c1ccccc1C1CN(S(=O)(=O)c2ccccc2)CCN1C1CC2(CCN(c3ccc(C(=O)NS(=O)(=O)c4ccc(NC[C@H]5CC[C@](C)(O)CC5)c([N+](=O)[O-])c4)c(Oc4cnc5[nH]ccc5c4)c3)CC2)C1 (some centres unmarked) [Example 62]	nM	13
[2H]C([2H])([2H])Oc1ccc(CN2CCN(C3CC4(C3)CN(c3ccc(C(=O)NS(=O)(=O)c5ccc(NC[C@H]6CC[C@](C)(O)CC6)c([N+](=O)[O-])c5)c(Oc5cnc6[nH]cc(F)c6c5)c3)C4)[C@H](c3ccccc3C(C)C)C2)cc1OC([2H])([2H])[2H] [Example 197]	nM	0.15
CC(C)c1ccccc1C1CN(Cc2cnn(C)c2)CCN1C1CC2(CCN(c3ccc(C(=O)NS(=O)(=O)c4ccc(NC[C@H]5CC[C@](C)(O)CC5)c([N+](=O)[O-])c4)c(Oc4cnc5[nH]ccc5c4)c3)CC2)C1 (some centres unmarked) [Example 22]	nM	0.079

stdin: What IC50 value was documented for this molecule, CC(C)c1ccccc1C1CN(Cc2cccc3c2OCCCO3)CCN1C1CC2(CCN(c3ccc(C(=O)NS(=O)(=O)c4ccc(NC[C@H]5CC[C@](C)(O)CC5)c([N+](=O)[O-])c4)c(Oc4cnc5[nH]ccc5c4)c3)CC2)C1 (some centres unmarked) [Example 107] ?
stdout: 0.56

stdin: What IC50 value was documented for this molecule, COc1ccc(CN2CCN(C3CC4(CCN(c5ccc(C(=O)NS(=O)(=O)c6ccc(NC[C@H]7CC[C@](C)(O)CC7)c([N+](=O)[O-])c6)c(Oc6cnc7[nH]ccc7c6)c5)CC4)C3)C(c3ccccc3C(C)C)C2)nc1OC (some centres unmarked) [Example 194] ?
stdout: 0.16

stdin: What IC50 value was documented for this molecule, COc1ccc(CN2CCN(C3CC4(CCN(c5ccc(C(=O)NS(=O)(=O)c6ccc(NC[C@H]7CC[C@](C)(O)CC7)c([N+](=O)[O-])c6)c(Oc6cnc7[nH]cc(Cl)c7c6)c5)CC4)C3)[C@H](c3ccccc3C(C)C)C2)cc1OC [Example 174] ?
stdout: 0.59

stdin: What IC50 value was documented for this molecule, COc1cc(CN2CCN(C3CC4(C3)CN(c3ccc(C(=O)NS(=O)(=O)c5ccc(NC[C@H]6CC[C@](C)(O)CC6)c([N+](=O)[O-])c5)c(Oc5cnc6[nH]cc(F)c6c5)c3)C4)[C@H](c3ccccc3C(C)C)C2)ccc1OC1CCC1 [Example 350] ?
stdout: 0.99
